# Species: Cavia porcellus
# procedure_text: Selectivity of inhibition at beta-1 versus beta-2 adrenergic receptors, […]
value_type: Ratio
Answer with a number only.

O[C@H](COc1ccccc1)[C@@H]1CCCCN1 (relative stereo) : 1.7
O[C@H](COc1cccc2ccccc12)[C@@H]1CCCCN1 (relative stereo) : 0.4
CC(C)NCC(O)COc1ccccc1 (configuration not stated) : 8.1
Cc1ccc(OC[C@@H](O)[C@@H]2CCCCN2)cc1 (relative stereo) : 0.8
Cc1ccc(OCC(O)CNC(C)C)cc1 (configuration not stated) : 1.8

Exercise: // returns reported Ratio for input CC(C)NCC(O)COCc1ccccc1 (configuration not stated)
Solution: 1

Exercise: Similarly, CN1CCCC[C@@H]1[C@H](O)COc1ccccc1 ?
Solution: 0.7

Exercise: Next: O[C@H](COc1ccc2ccccc2c1)[C@H]1CCCCN1 (relative stereo)
Solution: 2

Exercise: Same again, this time with Cc1ccc(OC[C@@H](O)[C@H]2CCCCN2)cc1 (relative stereo)
Solution: 1.2

Exercise: Please do the same for Cc1cccc(OCC(O)CNC(C)C)c1 (configuration not stated) as well.
Solution: 6.5

Exercise: Also O[C@H](COc1ccccc1)[C@H]1CCCCN1 (relative stereo) ?
Solution: 0.7

Exercise: # repeat for O[C@H](COCc1ccccc1)[C@@H]1CCCCN1 (relative stereo)
Solution: 2.5

Exercise: Now consider Cc1cccc(OC[C@@H](O)[C@H]2CCCCN2)c1 (relative stereo) .
Solution: 0.5

Exercise: Consider next the molecule CC(C)NCC(O)COc1ccc2ccccc2c1 (configuration not stated) in the same way.
Solution: 0.9

---

The reader will find reported Ratio values listed item by item below.
# Species: Cavia porcellus
# procedure_text: Selectivity of inhibition at beta-1 versus beta-2 adrenergic receptors, […]
No unit in the answer, please; the number alone is enough.

O[C@H](COc1cccc2ccccc12)[C@H]1CCCCN1 (relative stereo) : 0.7
CC(C)NCC(O)COCCCc1ccccc1 (stereo not drawn) : 0.5
O[C@H](COc1ccc2ccccc2c1)[C@@H]1CCCCN1 (relative stereo) : 1.8
Cc1cccc(OC[C@@H](O)[C@@H]2CCCCN2)c1 (relative stereo) : 0.03
CN1CCCC[C@H]1[C@H](O)COc1ccccc1 (relative stereo) : 1.4
O[C@H](COCCCc1ccccc1)[C@@H]1CCCCN1 (relative stereo) : 0.1
O[C@H](COCc1ccccc1)[C@H]1CCCCN1 (relative stereo) : 0.4

Exercise: Quick check: Ratio of CC(C)N(C)CC(O)COc1ccccc1 (stereo not drawn) ?
Solution: 2.2
